biological target: OsWRKY34 (Oryza sativa, UniProt Q0JBA9 1-250); experiment: protein-binding microarray (RPBM); PBS, 2% BSA, 51.3 ng/ul salmon testes DNA, 50 uM zinc acetate, 200 nM TF, 25 C, 1 h; high values mean tight binding; conditions: protein: recombinant; tags: N-terminal polyhistidine and DsRed monomer fusion (pET32a); label: CyDye5-dUTP incorporated in the synthesized complementary strand; 3' TTTTT single-stranded linker to array surface; dsDNA, one strand shown
Sequence (Q0JBA9 entry or part of it): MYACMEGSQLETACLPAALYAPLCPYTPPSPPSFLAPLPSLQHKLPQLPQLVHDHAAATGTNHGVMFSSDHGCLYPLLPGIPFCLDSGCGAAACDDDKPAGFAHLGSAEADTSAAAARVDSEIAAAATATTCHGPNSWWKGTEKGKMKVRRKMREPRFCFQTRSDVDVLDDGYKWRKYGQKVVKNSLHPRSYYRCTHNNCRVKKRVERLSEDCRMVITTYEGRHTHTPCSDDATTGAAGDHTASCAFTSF
In all, about 68,000 sequences were measured (“fluorescence intensity (a.u.)”: median about 9,100, highest 2% from about 16,000 on). Shown is part of a subset that was picked to be rich in the highest values.
The entries below come with measured binding signal values attached.

Recorded results for 4 sequences are shown here.
TCTCCTCCATCATCGCAGCCAACTCCAACATCCTGAGCTCCGGAGTCACCTAGTGCAG = 9510 fluorescence intensity (a.u.)
GACACCGTTGACTTTTTAAGTACGTGTTTGACCATTCGTCCGGAGTCACCTAGTGCAG = 43700 fluorescence intensity (a.u.)
ACGTGTCGTTGACTTTTTATCACACGTTTAGCCATTCGTCCGGAGTCACCTAGTGCAG = 30200 fluorescence intensity (a.u.)
GTTTGACACCGTGGACTTTTTTAAATATGTTTGACCATTCCGGAGTCACCTAGTGCAG = 11800 fluorescence intensity (a.u.)

Kindly note: OsWRKY34 (Oryza sativa, UniProt Q0JBA9 1-250), GTACGACAGTAGTTGTTTTTCTCGCTTTTGATTTTGAGTCCGGAGTCACCTAGTGCAG , binding signal value reported: 8560 fluorescence intensity (a.u.)

Kindly note: OsWRKY34 (Oryza sativa, UniProt Q0JBA9 1-250), GTAGTCATTCACGTGTTCCTCTTCTCCAGTACTAGTAGCTCGGAGTCACCTAGTGCAG , binding signal value reported: 9710 fluorescence intensity (a.u.)

Kindly note: OsWRKY34 (Oryza sativa, UniProt Q0JBA9 1-250), TGCGTACACTCCTTTGAAACCCCATTGCTATGTAGACAATCGGAGTCACCTAGTGCAG , binding signal value reported: 8020 fluorescence intensity (a.u.)

Kindly note: OsWRKY34 (Oryza sativa, UniProt Q0JBA9 1-250), TAACACCGTTGACTTTTTAGCTCATGTTTGACCATTCGTCCGGAGTCACCTAGTGCAG , binding signal value reported: 27400 fluorescence intensity (a.u.)

Kindly note: OsWRKY34 (Oryza sativa, UniProt Q0JBA9 1-250), ACGGGGCGCATTTATTCATCCCCACCTTTGTTCATCAGTTCGGAGTCACCTAGTGCAG , binding signal value reported: 11600 fluorescence intensity (a.u.)

###

The entries below come with measured binding signal values attached.
target: OsWRKY34 (Oryza sativa, UniProt Q0JBA9 1-250); assay: protein-binding microarray (RPBM); PBS, 2% BSA, 51.3 ng/ul salmon testes DNA, 50 uM zinc acetate, 200 nM TF, 25 C, 1 h; high values mean tight binding; conditions: protein: recombinant; tags: N-terminal polyhistidine and DsRed monomer fusion (pET32a); label: CyDye5-dUTP incorporated in the synthesized complementary strand; 3' TTTTT single-stranded linker to array surface; dsDNA, one strand shown
Whole data set: some 68,000 sequences, median “fluorescence intensity (a.u.)” near 9,100, cut for the highest 2% near 16,000. The list comes from a sample in which the highest values are over-represented; it also holds close analogues and randomly drawn sequences.

Recorded results for 4 sequences are shown here.
AGCACCGGTGGCAGCGGCGGACCGTGGAGGGAGGGAGGGGCGGAGTCACCTAGTGCAG = 9770 fluorescence intensity (a.u.)
GCTGACATAATTGCTTGTTGGGATTCTTGGGAGGAAATGGCGGAGTCACCTAGTGCAG = 8330 fluorescence intensity (a.u.)
AAGTTTTTGGGTAGTGCTTTTGCGCGCTTTCTCTTGGCTGCGGAGTCACCTAGTGCAG = 8150 fluorescence intensity (a.u.)
GGAGAGATGCCATGCCGCGCTATGTTGTTCAACTTCAAACCGGAGTCACCTAGTGCAG = 8400 fluorescence intensity (a.u.)

Entry under test: GGTTTTTATGGGGTTGCTCTTTGATTTTTTTTTTCTCCTGCGGAGTCACCTAGTGCAG . Its binding signal was 12200 fluorescence intensity (a.u.)

Entry under test: CGTTTTATTTTTGGTTGTTTTTCTGTTTGGGTTTTGATTTCGGAGTCACCTAGTGCAG . Its binding signal was 11300 fluorescence intensity (a.u.)

Entry under test: CGGCGGCGGTGGTGGGGAGGAGGAGGGCCAGCGGCAGCAACGGAGTCACCTAGTGCAG . Its binding signal was 17500 fluorescence intensity (a.u.)

Entry under test: GGCTGGTTTGGTTGGTTGAGAATACCTTTTCTTTTTCCTTCGGAGTCACCTAGTGCAG . Its binding signal was 29100 fluorescence intensity (a.u.)

Entry under test: GAGCTTTGCGCTGGGTGGGCTTGCATTTTTGGGTCTACCGCGGAGTCACCTAGTGCAG . Its binding signal was 21500 fluorescence intensity (a.u.)
